Below: a set of entries, each annotated with reported protein stability index.
B1: STX11 (parent)
chain: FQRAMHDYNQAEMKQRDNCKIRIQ

variants of: B1; test: protein stability index of a GFP-peptide fusion (GPS, HEK-293T) (PSI 1-6); higher = more stable; conditions: c terminus: a fixed tail appended;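 note: lentivirally expressed fusions sorted by FACS into six bins by GFP to DsRed ratio, PSI derived from sequencing read proportions per bin multiplied by bin number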
measure_name: protein stability index

[
  {
    "sequence_record": "FQRAMHDYNQAEMRQRDNCKIRIQ [K14R]",
    "value_measured": 2.18
  },
  {
    "sequence_record": "PQRAMHDYNQAEMKQRDNCKIRIQ [F1P]",
    "value_measured": 4.17
  },
  {
    "sequence_record": "FQHAMHDYNQAEMKQRDNCKIRIQ [R3H]",
    "value_measured": 2.97
  },
  {
    "sequence_record": "FQRAMHDWNQAEMKQRDNCKIRIQ [Y8W]",
    "value_measured": 2.08
  },
  {
    "sequence_record": "FQRCMHDYNQAEMKQRDNCKIRIQ [A4C]",
    "value_measured": 2.21
  },
  {
    "sequence_record": "FQRAMHDYNQAEMKQRDNCKIREQ [I23E]",
    "value_measured": 3.53
  },
  {
    "sequence_record": "FQRAMHDYNQWEMKQRDNCKIRIQ [A11W]",
    "value_measured": 2.49
  },
  {
    "sequence_record": "FQRAMHDYNQDEMKQRDNCKIRIQ [A11D]",
    "value_measured": 3.02
  },
  {
    "sequence_record": "FQRAMHDYNQAEGKQRDNCKIRIQ [M13G]",
    "value_measured": 3.49
  },
  {
    "sequence_record": "FQRAMHDDNQAEMKQRDNCKIRIQ [Y8D]",
    "value_measured": 3.4
  },
  {
    "sequence_record": "FQRAMHDYNQAEMKQRDNCKWRIQ [I21W]",
    "value_measured": 3.17
  },
  {
    "sequence_record": "FQRAMHDYFQAEMKQRDNCKIRIQ [N9F]",
    "value_measured": 1.83
  },
  {
    "sequence_record": "FQRAFHDYNQAEMKQRDNCKIRIQ [M5F]",
    "value_measured": 1.8
  },
  {
    "sequence_record": "FQDAMHDYNQAEMKQRDNCKIRIQ [R3D]",
    "value_measured": 3.44
  },
  {
    "sequence_record": "FQRAMHDYNQFEMKQRDNCKIRIQ [A11F]",
    "value_measured": 2.46
  },
  {
    "sequence_record": "FQRAMHDYNQAEMWQRDNCKIRIQ [K14W]",
    "value_measured": 2.86
  },
  {
    "sequence_record": "FQRAMHDYNGAEMKQRDNCKIRIQ [Q10G]",
    "value_measured": 2.45
  },
  {
    "sequence_record": "FQRAMHDYNQAEMKARDNCKIRIQ [Q15A]",
    "value_measured": 2.23
  },
  {
    "sequence_record": "FQRAMHDYNQCEMKQRDNCKIRIQ [A11C]",
    "value_measured": 2.29
  },
  {
    "sequence_record": "FQRAMHDYNQAEMKQRVNCKIRIQ [D17V]",
    "value_measured": 2.73
  },
  {
    "sequence_record": "FQRAMHDYNQAEMKQRDNKKIRIQ [C19K]",
    "value_measured": 3.38
  },
  {
    "sequence_record": "CQRAMHDYNQAEMKQRDNCKIRIQ [F1C]",
    "value_measured": 3.56
  },
  {
    "sequence_record": "FQRAMHDYNQAEMKQRDYCKIRIQ [N18Y]",
    "value_measured": 2.17
  },
  {
    "sequence_record": "FQRAMHDYNQAEMKQRENCKIRIQ [D17E]",
    "value_measured": 2.81
  },
  {
    "sequence_record": "FQRAMHDYNQAEMKQIDNCKIRIQ [R16I]",
    "value_measured": 2.34
  },
  {
    "sequence_record": "FQRAMHDYNQPEMKQRDNCKIRIQ [A11P]",
    "value_measured": 3.19
  },
  {
    "sequence_record": "FQRAMHVYNQAEMKQRDNCKIRIQ [D7V]",
    "value_measured": 2.15
  },
  {
    "sequence_record": "FQRAMHDYNMAEMKQRDNCKIRIQ [Q10M]",
    "value_measured": 1.92
  },
  {
    "sequence_record": "FQRAMHDYNQAEMKQRDLCKIRIQ [N18L]",
    "value_measured": 2.48
  },
  {
    "sequence_record": "FQRAMHKYNQAEMKQRDNCKIRIQ [D7K]",
    "value_measured": 2.56
  },
  {
    "sequence_record": "FQRAMKDYNQAEMKQRDNCKIRIQ [H6K]",
    "value_measured": 2.74
  },
  {
    "sequence_record": "FQRAMHDNNQAEMKQRDNCKIRIQ [Y8N]",
    "value_measured": 3.83
  },
  {
    "sequence_record": "FQRAMHDYNQAEMKQRDNIKIRIQ [C19I]",
    "value_measured": 2.55
  },
  {
    "sequence_record": "FQRAMHDYNQAEMKQEDNCKIRIQ [R16E]",
    "value_measured": 3.04
  },
  {
    "sequence_record": "FQRAMHIYNQAEMKQRDNCKIRIQ [D7I]",
    "value_measured": 1.7
  },
  {
    "sequence_record": "FQRAMHDYNQAEMKQRDNPKIRIQ [C19P]",
    "value_measured": 3.71
  },
  {
    "sequence_record": "FQRAMHDHNQAEMKQRDNCKIRIQ [Y8H]",
    "value_measured": 3
  },
  {
    "sequence_record": "FQRAMHDYNQAEMKQRCNCKIRIQ [D17C]",
    "value_measured": 2.09
  },
  {
    "sequence_record": "FQRAMHDYNQAECKQRDNCKIRIQ [M13C]",
    "value_measured": 2.49
  },
  {
    "sequence_record": "FQRAMHDYNQAEMKQRDNCCIRIQ [K20C]",
    "value_measured": 2.23
  },
  {
    "sequence_record": "FQRAMHDYNQAEMKQRDNCKIRIM [Q24M]",
    "value_measured": 2.69
  },
  {
    "sequence_record": "FQRAMHDYNQAEMKERDNCKIRIQ [Q15E]",
    "value_measured": 3.2
  },
  {
    "sequence_record": "FQRAMHDYNQAEMKQRDNCVIRIQ [K20V]",
    "value_measured": 2.14
  },
  {
    "sequence_record": "FQFAMHDYNQAEMKQRDNCKIRIQ [R3F]",
    "value_measured": 2.07
  },
  {
    "sequence_record": "FQRAMHDSNQAEMKQRDNCKIRIQ [Y8S]",
    "value_measured": 3.45
  },
  {
    "sequence_record": "FQRAMHDYNQAEMKQRDNSKIRIQ [C19S]",
    "value_measured": 3.27
  },
  {
    "sequence_record": "FQRAMHDYNQAEMKQRDNCKIRIR [Q24R]",
    "value_measured": 2.33
  },
  {
    "sequence_record": "FQRAMHDYNQAEMKQRDCCKIRIQ [N18C]",
    "value_measured": 2.3
  },
  {
    "sequence_record": "FQRAMHDYNQAEMKQRPNCKIRIQ [D17P]",
    "value_measured": 2.97
  },
  {
    "sequence_record": "FQKAMHDYNQAEMKQRDNCKIRIQ [R3K]",
    "value_measured": 3.01
  },
  {
    "sequence_record": "FQRAYHDYNQAEMKQRDNCKIRIQ [M5Y]",
    "value_measured": 1.88
  },
  {
    "sequence_record": "FQRAMHDYNQYEMKQRDNCKIRIQ [A11Y]",
    "value_measured": 3.24
  },
  {
    "sequence_record": "FQRAMHDYNQAEMKQRDNRKIRIQ [C19R]",
    "value_measured": 2.59
  },
  {
    "sequence_record": "FQRAMHDYNQAEMKQRDNCKIRIS [Q24S]",
    "value_measured": 2.27
  },
  {
    "sequence_record": "FQRAMHDYNPAEMKQRDNCKIRIQ [Q10P]",
    "value_measured": 2.01
  },
  {
    "sequence_record": "FQRAMHDYPQAEMKQRDNCKIRIQ [N9P]",
    "value_measured": 3.11
  },
  {
    "sequence_record": "FQRAMHDYNQAEMKQRDNCYIRIQ [K20Y]",
    "value_measured": 1.41
  },
  {
    "sequence_record": "FQRAMHDYNQAEMKQRSNCKIRIQ [D17S]",
    "value_measured": 1.78
  },
  {
    "sequence_record": "FQRAMHDYNQREMKQRDNCKIRIQ [A11R]",
    "value_measured": 2.79
  },
  {
    "sequence_record": "FQRAMHDYNQAEMKQRDNCKIGIQ [R22G]",
    "value_measured": 2.57
  },
  {
    "sequence_record": "FQRAMHDYNQAEMKQRDNCKIRIA [Q24A]",
    "value_measured": 2.62
  },
  {
    "sequence_record": "FQRAMHDYNQAEMSQRDNCKIRIQ [K14S]",
    "value_measured": 2.48
  },
  {
    "sequence_record": "FQRAMHDYNQAEMKQRDNCKIRGQ [I23G]",
    "value_measured": 3.25
  },
  {
    "sequence_record": "FQRAMHDYNQAEMKQRDNCKCRIQ [I21C]",
    "value_measured": 2.36
  },
  {
    "sequence_record": "FQGAMHDYNQAEMKQRDNCKIRIQ [R3G]",
    "value_measured": 2.88
  },
  {
    "sequence_record": "FQRAKHDYNQAEMKQRDNCKIRIQ [M5K]",
    "value_measured": 2.86
  },
  {
    "sequence_record": "FQRAMDDYNQAEMKQRDNCKIRIQ [H6D]",
    "value_measured": 2.92
  },
  {
    "sequence_record": "FQRAMHDYNQAEMKQRDNCKIRTQ [I23T]",
    "value_measured": 3.19
  },
  {
    "sequence_record": "FQRAMHGYNQAEMKQRDNCKIRIQ [D7G]",
    "value_measured": 2.18
  },
  {
    "sequence_record": "FQRAMHTYNQAEMKQRDNCKIRIQ [D7T]",
    "value_measured": 2.23
  },
  {
    "sequence_record": "FQRAMHNYNQAEMKQRDNCKIRIQ [D7N]",
    "value_measured": 2.66
  },
  {
    "sequence_record": "FQRAMHDYNQAEMKQRDNCKIQIQ [R22Q]",
    "value_measured": 2.9
  },
  {
    "sequence_record": "FQRAMHDYNKAEMKQRDNCKIRIQ [Q10K]",
    "value_measured": 2.73
  },
  {
    "sequence_record": "FQRAMHDYNQAVMKQRDNCKIRIQ [E12V]",
    "value_measured": 2.52
  },
  {
    "sequence_record": "FQRAMHDYNQAHMKQRDNCKIRIQ [E12H]",
    "value_measured": 2.14
  },
  {
    "sequence_record": "FQRAMHDYNQAEMKQRDNCKERIQ [I21E]",
    "value_measured": 2.92
  },
  {
    "sequence_record": "FQRAMHDYNQAEMKQRDNCSIRIQ [K20S]",
    "value_measured": 3.15
  },
  {
    "sequence_record": "FQRAMHDYNQAEMKQRDNNKIRIQ [C19N]",
    "value_measured": 3.7
  },
  {
    "sequence_record": "FQRAMHDANQAEMKQRDNCKIRIQ [Y8A]",
    "value_measured": 3.64
  },
  {
    "sequence_record": "FMRAMHDYNQAEMKQRDNCKIRIQ [Q2M]",
    "value_measured": 2.69
  },
  {
    "sequence_record": "FQPAMHDYNQAEMKQRDNCKIRIQ [R3P]",
    "value_measured": 2.99
  },
  {
    "sequence_record": "FQRAMHDYNQAEMKQRDNCKIYIQ [R22Y]",
    "value_measured": 2.59
  },
  {
    "sequence_record": "FQRAMHDYNQAEMKQTDNCKIRIQ [R16T]",
    "value_measured": 2.67
  },
  {
    "sequence_record": "FQRAMCDYNQAEMKQRDNCKIRIQ [H6C]",
    "value_measured": 2.7
  },
  {
    "sequence_record": "FQRKMHDYNQAEMKQRDNCKIRIQ [A4K]",
    "value_measured": 2.54
  },
  {
    "sequence_record": "FQRAMHDYNQAEMKQRDNCKIAIQ [R22A]",
    "value_measured": 2.61
  },
  {
    "sequence_record": "FQRAMHAYNQAEMKQRDNCKIRIQ [D7A]",
    "value_measured": 2.67
  },
  {
    "sequence_record": "FQRAMHDYNQAEMKQRDNCKIRSQ [I23S]",
    "value_measured": 2.66
  },
  {
    "sequence_record": "FQRAMHDENQAEMKQRDNCKIRIQ [Y8E]",
    "value_measured": 3.47
  },
  {
    "sequence_record": "FQRAMHDYNQAEMKQCDNCKIRIQ [R16C]",
    "value_measured": 2.48
  },
  {
    "sequence_record": "FQRHMHDYNQAEMKQRDNCKIRIQ [A4H]",
    "value_measured": 2.75
  }
]
